Target: UniProt P51575
Sequence (P51575 whole entry, looked up): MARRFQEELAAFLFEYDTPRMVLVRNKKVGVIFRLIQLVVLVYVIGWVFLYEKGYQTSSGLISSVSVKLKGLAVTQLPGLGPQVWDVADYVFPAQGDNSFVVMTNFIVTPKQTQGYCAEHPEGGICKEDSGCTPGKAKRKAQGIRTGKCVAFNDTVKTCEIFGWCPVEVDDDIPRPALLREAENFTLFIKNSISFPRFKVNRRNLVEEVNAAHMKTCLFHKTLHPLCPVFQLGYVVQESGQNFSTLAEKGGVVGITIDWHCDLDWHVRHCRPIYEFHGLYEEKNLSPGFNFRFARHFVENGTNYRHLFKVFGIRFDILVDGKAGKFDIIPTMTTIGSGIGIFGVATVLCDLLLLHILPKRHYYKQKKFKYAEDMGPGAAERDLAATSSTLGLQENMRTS
Assay: Antagonist activity at non-desensitizing human P2X1 receptor ( P2X2/P2X1 chimera) expressed in human 1321N1 cells assessed as inhibition of ATP-induced calcium influx pre-incubated for 30 mins before ATP stimulation by FLIPR assay relative to control
Hi! Could you tag entries with IC50 below 0.6 µM as t, and those at or above as f? Much appreciated.

| SMILES CODE | ANSWER LABEL |
| --- | --- |
| O=C(Nc1cc(O)cc(O)c1)c1cc(Cl)ccc1O | f |
| O=C(Nc1cc(C(F)(F)F)cc(C(F)(F)F)c1)c1cccc([N+](=O)[O-])c1O | f |
| COc1ccc(O)c(C(=O)Nc2cc(C(F)(F)F)cc(C(F)(F)F)c2)c1 | f |
| O=C(Nc1cc([N+](=O)[O-])cc(C(F)(F)F)c1)c1cccc(Cl)c1O | t |
| Oc1ccc(Cl)cc1CNc1cc(C(F)(F)F)cc(C(F)(F)F)c1 | f |

Qu. Determine whether this compound shows IC50 lower than 0.6 µM (ties excluded): "O=C(N[C@H](Cc1cscn1)C(=O)N[C@@H](CC1CCCCC1)[C@@H](O)[C@@H](O)C1CC1)c1nc2ccccc2[nH]1"
Ans. t

Qu. Is IC50 strictly under 0.6 µM for the entry "O=C(Nc1cc(C(F)(F)F)cc(C(F)(F)F)c1)c1cccc(C(F)(F)F)c1" ?
Ans. f

Qu. Quick check: does "C#Cc1cccc(NC(=O)c2cc(Cl)ccc2O)c1" have IC50 under 0.6 µM?
Ans. f

Qu. hey, is IC50 for "CN1CCN(C(=O)Nc2cc(C(F)(F)F)cc(C(F)(F)F)c2)C1=O" lower than 0.6 µM or not?
Ans. f

Qu. Decide: IC50 of "CC(C)(C)c1cccc(NC(=O)c2cc(Cl)ccc2O)c1" strictly below 0.6 µM?
Ans. t
